Origin of measurements: the RNAGym collection of RNA variant scans (doi:10.1101/gad.245936.114)

B1: tRNA (parent)
chain: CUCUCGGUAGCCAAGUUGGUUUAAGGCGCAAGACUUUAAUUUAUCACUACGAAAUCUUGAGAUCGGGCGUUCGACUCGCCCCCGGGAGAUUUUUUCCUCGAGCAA

Variants of: B1
Assay: nonsense suppression (GFP-seq) (ratio to wild type); higher = more function; SUP4oc tRNA, yeast GFP reporter sort-seq
This sample holds only a part of the variants without activity.
Classification field: enter 1.0 for nonsense suppression values not below 0.04, 0.0 for values below it.

>  <Sequence Code>
CUCUCGGUAGCCAUGUUGGUUUAAGGCGCAAGACUUUAAUUUAUCACUACGAACUCUUGAGAUCGGGAGUUCCACUCGCCCCCAGGAGAUUUUUUCCUCGAGCAA [A14U A54C C68A G73C G84A]

>  <Assigned Label>
1.0

$$$$
>  <Sequence Code>
CUCUCGGUAGCCACGGUGGUUUAAGGCGCAAGACUUUAAUUUAUCACUACGAAACCUUGAGAUCGGGCGUUCGACUCGCCCCCGGGAGAUUUUUUCCUCGAGCAA [A14C U16G U55C]

>  <Assigned Label>
0.0

$$$$
>  <Sequence Code>
CUCUCGGUAGCCAAGUUGGUUGAAGGCGUAAAACUUUAAUUUAUCACUACGAAAUCUUGAGAUCGGGCGUUCGACUCGCCCCCGGGAGAUUUUUUCCUCGAGCAA [U22G C29U G32A]

>  <Assigned Label>
0.0

$$$$
>  <Sequence Code>
CCCUCGGUAGCCAAGUUGGUUUAAGGCGCAAGACUUUAAUUUAUCACUACGAAAUCUUGCGAUCGGGCGUUCGACUCGCCCCCGGGAGAUUUUUUCCUCGAGCAA [U2C A60C]

>  <Assigned Label>
0.0

$$$$
>  <Sequence Code>
CUCUCGGUAGCCAAGUUGGUGUAAGGCGCAAGACUUUAAUUUAUCACUACGAAAUCUUGGGAUCGGGCGUUCGACUCGCCCCCGGGAGAUUUUUUCCUCGAGCAA [U21G A60G]

>  <Assigned Label>
0.0

$$$$
>  <Sequence Code>
CUCUCAGGAGCCAAGUUGGUUUAAGGCGCAAGACUUUAAUUUAUCACUACGAAAUCUUGAGAUCGGGCGUUCGACUCGCCCCCGGGAGAUUUUUUCCUCGAGCAA [G6A U8G]

>  <Assigned Label>
0.0

$$$$
>  <Sequence Code>
CUCUCGGUAGCCAAGUUGGUUUAAGACGCAAGACUUUAAUUUAUCACUACGAAAUCUUGAGAUCGGGCGUUCGACUGGCCCCCGGGAGAUUUUUUCCUCGAGCAA [G26A C77G]

>  <Assigned Label>
0.0

$$$$
>  <Sequence Code>
CUCUCGGUAGCCAAGUUGGUUUAAGGCGCAAGACUUUAAUUUAUCACUACGAAAUCUUGAGUUCGGGCGUUCGACUCACCCCCGGGAGAUUUUUUCCUCGAGCAA [A62U G78A]

>  <Assigned Label>
1.0

$$$$
>  <Sequence Code>
CUCGCGGUAGCCAAGUCGGUUUAAGGCGCAAGACUUUAAUUUAUCACUACGAAAUCUUGAGAUCGGGCGUUCGACUCGCCCCCGGGAGAUUUUUUCCUCGAGCAA [U4G U17C]

>  <Assigned Label>
1.0

$$$$
>  <Sequence Code>
CUCUCGGUAGCCAAGAUGGUUUAAGGCGCAAGACUUUAAUUUAUCACUACGAAAUCUUGAGAUCGGGCGUGCGAGUCGCCCCCGGGAGAUUUUUUCCUCGAGCAA [U16A U71G C75G]

>  <Assigned Label>
0.0

$$$$
>  <Sequence Code>
CUCUCGGUAGCCAAGUUGGUUUAAUGCGCAAGACUUUAAUUUAUCACUACGAAAUCUUGAAAUCGGUCGUUCGACUCGCCCCCGGGAGAUUUUUUCCUCGAGCAA [G25U G61A G67U]

>  <Assigned Label>
0.0

$$$$
>  <Sequence Code>
CUCUCGGUAGCCAAGUUGGUUUAAGGGGCAAGACUUUAAUUUAUCACUACGAAAUCUUGAGAUCGGGCGUUCGACUCGCUCCAGGGAGAUUUUUUCCUCGAGCAA [C27G C80U C83A]

>  <Assigned Label>
0.0

$$$$
>  <Sequence Code>
CUCUCGGUAGCCUAGUUGGUUUAAGGCGCAAGACUUUAAUUUAUCACUACGAAAUCUUGAGAUCUGGCGUUCGACUCGCCCCCGGGAGAUUUUUUCCUCGAGCAA [A13U G65U]

>  <Assigned Label>
1.0

$$$$
>  <Sequence Code>
CUCUCGGUAGCCAAGUUGGUUUAAGGCGCAAGACUUUAAUUUAUCACUACGAAAUCUUGAGAUCGGGGGCUCGACUCGCCCCCGGGAGAUUUUUUCCUCGAGCAA [C68G U70C]

>  <Assigned Label>
0.0

$$$$
>  <Sequence Code>
CUCUCGGUAGCCAAGUUGGUUUAAGGCGCAAGACUUUAAUUUAUCACUACGAAACCUAGAGAUCGGUCGUUCGACUCGCCCCCGGGAGAUUUUUUCCUCGAGCAA [U55C U58A G67U]

>  <Assigned Label>
0.0

$$$$
>  <Sequence Code>
CUCUCGGUAGCCAAAUUGGUUUAAGGCGCAAGACUUUAAUUUAUCACUACGAAAUCUUCAGAUCGGGCGUUCGACUCGCCCCCGGGCGAUUUUUUCCUCGAGCAA [G15A G59C A87C]

>  <Assigned Label>
0.0

$$$$
>  <Sequence Code>
CUGUCGGUAGCCUAGUUGGUUUAAGGCGCAAGACUUUAAUUUAUCACUACGAAAUCUUGAGAUCGGGCGUUCGACUCGCCCCCGGGAGAUUUUUUCCUCGAGCAA [C3G A13U]

>  <Assigned Label>
1.0

$$$$
>  <Sequence Code>
CUCUCGGUAGCCAAGUUGGUUUAAGGCGCAGGGCUUUAAUUUAUCACUACGAAACCUUGAAAUCGGGCGUUCGACUCGCCCCCGGGAGAUUUUUUCCUCGAGCAA [A31G A33G U55C G61A]

>  <Assigned Label>
1.0

$$$$
>  <Sequence Code>
CUCUCGGUAGCCAAGUUGGUUUAAGGCGCAAGACUUUAAUUUAUCACUACGAAAUCUUGAGAUCGGGCCUUCGACUCGCCCCCGGGAUAUUUUUUCCUCGAGCAA [G69C G88U]

>  <Assigned Label>
0.0

$$$$
>  <Sequence Code>
CUCUCGGUAGCCAAGUUGCUUUAAGGCGCUAGACUUUAAUUUAUCACUACGAAAUCUUGAGAUCGGGCGUUCGACUCGCCCCCGGGAGAUUUUUUCCUCGAGCAA [G19C A30U]

>  <Assigned Label>
0.0

$$$$
>  <Sequence Code>
CGCUCGGUAGCCAAGUUGGUUUAAGGCGCAAGACUUUAAUUUAUCACUACGAAAUCUUGAGAUCGGGCGUUCGCCUCGCCCCCGGGAGAUUUUUUCCUCGAGCAA [U2G A74C]

>  <Assigned Label>
0.0

$$$$
>  <Sequence Code>
CUCUCGGUAGCCAAGUUGGUUUAAGGCACAAGACUUUAAUUUAUCACUACGAAAUCUUGAGACCGGGCGUUCGACUCGCCCCCGUGAGAUUUUUUCCUCGAGCAA [G28A U63C G85U]

>  <Assigned Label>
0.0

$$$$
